System: Plasmodium falciparum
protocol.notes: microbe, parasite or virus in culture
condition.details: isolate AK183
Description: Antimalarial activity against Plasmodium falciparum isolate AK183
recorded.metric: IC50 (nM)
Respond with the bare value in nM.

Q) Name the reported IC50 value associated with the compound "C=C[C@H]1CN2CC[C@H]1C[C@H]2[C@H](O)c1ccnc2ccc(OC)cc12"
A) 73.9

----------
Tested on: Plasmodium falciparum
protocol.notes: microbe, parasite or virus in culture
condition.details: isolate 8973
Description: Antimalarial activity against Plasmodium falciparum isolate 8973
recorded.metric: pIC50
The quantity pIC50 is defined as the negative base-10 logarithm of the molar concentration.

Q) Name the reported pIC50 value associated with the compound "C=C[C@H]1CN2CC[C@H]1C[C@H]2[C@H](O)c1ccnc2ccc(OC)cc12"
A) 7.70
